Target: Protocollagen prolyl hydroxylase (Gallus gallus, UniProt P16924)
Sequence (P16924 1-516): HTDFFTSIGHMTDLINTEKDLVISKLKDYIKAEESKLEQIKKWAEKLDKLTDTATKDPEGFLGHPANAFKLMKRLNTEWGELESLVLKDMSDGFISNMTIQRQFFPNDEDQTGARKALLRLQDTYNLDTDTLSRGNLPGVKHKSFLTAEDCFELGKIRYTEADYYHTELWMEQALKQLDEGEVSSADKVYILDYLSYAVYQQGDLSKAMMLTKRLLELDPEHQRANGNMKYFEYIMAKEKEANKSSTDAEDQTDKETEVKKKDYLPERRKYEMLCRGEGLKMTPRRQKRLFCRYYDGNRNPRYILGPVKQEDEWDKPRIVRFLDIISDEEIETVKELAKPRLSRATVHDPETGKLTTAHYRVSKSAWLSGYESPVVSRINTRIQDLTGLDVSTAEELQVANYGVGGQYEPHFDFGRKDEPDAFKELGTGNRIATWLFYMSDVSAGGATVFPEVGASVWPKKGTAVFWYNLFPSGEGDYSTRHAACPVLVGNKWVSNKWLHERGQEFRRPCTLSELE
Sequence (P09102 23-515 partner): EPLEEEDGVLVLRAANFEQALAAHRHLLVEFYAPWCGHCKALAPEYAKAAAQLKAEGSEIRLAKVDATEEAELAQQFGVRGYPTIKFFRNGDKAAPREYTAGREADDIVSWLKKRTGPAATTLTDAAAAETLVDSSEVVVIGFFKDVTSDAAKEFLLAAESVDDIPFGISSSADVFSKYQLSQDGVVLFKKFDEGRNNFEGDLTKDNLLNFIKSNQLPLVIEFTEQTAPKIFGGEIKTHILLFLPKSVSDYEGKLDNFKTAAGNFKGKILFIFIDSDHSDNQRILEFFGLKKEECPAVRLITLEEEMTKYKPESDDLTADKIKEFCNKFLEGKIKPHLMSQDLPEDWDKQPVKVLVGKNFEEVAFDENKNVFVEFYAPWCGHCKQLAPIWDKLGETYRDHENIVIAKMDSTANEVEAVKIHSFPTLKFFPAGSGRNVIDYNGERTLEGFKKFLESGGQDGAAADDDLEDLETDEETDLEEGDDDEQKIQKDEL
pIC50: −log10 of the molar value.
Classify as follows. Reported pIC50 greater than or equal to 4: yes. Reported pIC50 below: no.

[[record]]
molecule = "COC1=C(CO)C(=O)c2c(cc(OC)c(CSCC(NC(C)=O)C(=O)O)c2O)C1=O (stereo not drawn) [P-23924F]"
cat = "yes"

[[record]]
molecule = "COc1cc2c(c(O)c1CSCC(NC(C)=O)C(=O)O)C(=O)C(CO)=CC2=O (stereo not drawn) [P-23924E]"
cat = "yes"

[[record]]
molecule = "COc1cc2c(c(O)c1CSCC(NC(C)=O)C(=O)O)C(=O)C(C)=CC2=O (stereo not drawn) [P-23924A]"
cat = "yes"

[[record]]
molecule = "COC1=CC(=O)c2c(cc(OC)c(CSCC(NC(C)=O)C(=O)O)c2O)C1=O (stereo not drawn) [P-23924C]"
cat = "yes"


Problem: Check if pIC50 >= 4 (inclusive). Item: COC1=C(C)C(=O)c2c(cc(O)c(CSCC(NC(C)=O)C(=O)O)c2O)C1=O (stereo not drawn) [P-23924D]
Result: no
